assayed.target: soluble human FcRn (shFcRn) (Homo sapiens)
Construct: made in house; host or cells: Chinese hamster ovary (CHO) cells, glutamine synthetase expression system
Sequence (P61769 21-119): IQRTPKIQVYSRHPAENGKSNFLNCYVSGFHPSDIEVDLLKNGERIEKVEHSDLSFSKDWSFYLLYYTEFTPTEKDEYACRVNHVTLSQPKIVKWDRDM
Sequence (P55899 24-297): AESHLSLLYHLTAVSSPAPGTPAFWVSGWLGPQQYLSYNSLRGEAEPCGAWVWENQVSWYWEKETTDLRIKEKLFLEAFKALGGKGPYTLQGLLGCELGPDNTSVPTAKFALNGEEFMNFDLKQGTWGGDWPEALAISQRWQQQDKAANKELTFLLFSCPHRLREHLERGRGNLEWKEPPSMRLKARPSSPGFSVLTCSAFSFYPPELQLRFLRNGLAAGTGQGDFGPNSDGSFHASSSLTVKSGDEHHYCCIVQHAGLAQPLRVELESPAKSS
Type: binding
test.parameters: IgG competition ELISA, 3 nM human IgG, buffer pH 6
pIC50: −log10 of the molar value. Non-standard residues stand in square brackets, D forms with d. No end group written: not given here. βAla = NCCC(=O)O
assay.metric: pIC50

What value of pIC50 has been recorded for this entry: QRFCGHF[βAla]LYPCNGP (cysteine pairing not given here) [Peptide No. 25]
< 3.90
